B1: Osa-1-4 twister ribozyme (parent)
chain: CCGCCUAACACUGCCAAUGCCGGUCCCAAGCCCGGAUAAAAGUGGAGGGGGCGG

Variants of: B1
Experiment: self-cleavage, relative activity (ratio to wild type); higher = more cleavage; co-transcriptional
Catalogue of self-cleavage values
Lab note: record just the number, no unit beside it.

Some solved cases for reference:
VARIANT_DESCRIPTION | self-cleavage
G34C U12C | 0.1
G47A G53C | 0.06
A40C G44U | 0.06
G42A G51U | 0.1

Turning now to a further record.
Asked: Can you share its self-cleavage? I mean this variant: G49U G54C
Given back: 0.06
